molecular target: Human immunodeficiency virus type 1 reverse transcriptase (Human immunodeficiency virus 1)
// map IC50 onto a label; ranges Low = under 500 nM, Mid = from 500 nM up to 5000 nM, High = 5000 nM and over

[ask] Categorize the following entry: O=[N+]([O-])c1ccc(Nc2cn3ccnc3c(Oc3c(F)cc(F)cc3F)n2)cc1
[reply] High

[ask] Categorize the following entry: Cc1cc(C)c(Oc2nc(Nc3ccc(CC#N)cc3)cn3ccnc23)c(C)c1
[reply] Low

[ask] Categorize the following entry: Cc1cc(C#N)cc(C)c1Oc1nc(Nc2ccc(CC#N)cc2)cn2ccnc12
[reply] Low

[ask] Categorize the following entry: Cc1cc(Br)cc(C)c1Oc1nc(Nc2ccc(C#N)cc2)cn2ccnc12
[reply] Low

[ask] Categorize the following entry: N#Cc1ccc(Nc2cn3ccnc3c(Oc3c(F)cc(F)cc3F)n2)cc1
[reply] Low

[ask] Categorize the following entry: Cc1cccc(C)c1Oc1nc(Nc2ccc(Cl)cc2)cn2ccnc12
[reply] High

[ask] Categorize the following entry: Cc1cc(Br)cc(C)c1Oc1nc(Nc2ccc([N+](=O)[O-])cc2)cn2ccnc12
[reply] Mid

[ask] Categorize the following entry: Cc1cc(Cl)cc(C)c1Oc1nc(Nc2ccc([N+](=O)[O-])cc2)cn2ccnc12
[reply] Mid

[ask] Categorize the following entry: Cc1cccc(C)c1Oc1nc(Nc2ccc([N+](=O)[O-])cc2)cn2ccnc12
[reply] High

[ask] Categorize the following entry: Cc1cc(C)c(Oc2nc(Nc3ccc([N+](=O)[O-])cc3)cn3ccnc23)c(C)c1
[reply] Mid

* * *

assay: Selectivity index, ratio of CC50 for mock-infected human MT4 cells to EC50 for HIV1 RES056 expressing reverse transcriptase K103N/Y181C double mutant; format: toxicity, cell-based; settings: read-out: Selectivity Index
Where a name gives a salt, the structure may show the parent alone.
PARAMETER_MEASURED: selectivity ratio

[ask] Give recorded selectivity ratio. Cc1cc(C#N)cc(C)c1Oc1nc(Nc2ccc(C#N)cc2)cn2ccnc12
[reply] 1

[ask] Give recorded selectivity ratio. Cc1cccc(C)c1Oc1nc(Nc2ccc(CC#N)cc2)cn2ccnc12
[reply] < 1

[ask] Give recorded selectivity ratio. Cc1cc(C)c(Oc2nc(Nc3ccc(C#N)cc3)cn3ccnc23)c(C)c1
[reply] < 1

[ask] Give recorded selectivity ratio. Cc1cccc(C)c1Oc1nc(Nc2ccc(Cl)cc2)cn2ccnc12
[reply] < 1

[ask] Give recorded selectivity ratio. Cc1cn([C@H]2C[C@H](N=[N+]=[N-])[C@@H](CO)O2)c(=O)[nH]c1=O
[reply] > 9150

[ask] Give recorded selectivity ratio. Cc1cc(C#N)cc(C)c1Oc1nc(Nc2ccc(CC#N)cc2)cn2ccnc12
[reply] < 1

[ask] Give recorded selectivity ratio. Cc1cc(C)c(Oc2nc(Nc3ccc([N+](=O)[O-])cc3)cn3ccnc23)c(C)c1
[reply] < 1

[ask] Give recorded selectivity ratio. Cc1cc(Cl)cc(C)c1Oc1nc(Nc2ccc(C#N)cc2)cn2ccnc12
[reply] < 1

[ask] Give recorded selectivity ratio. Cc1cc(Br)cc(C)c1Oc1nc(Nc2ccc([N+](=O)[O-])cc2)cn2ccnc12
[reply] < 1

[ask] Give recorded selectivity ratio. Cc1cc(C#N)cc(C)c1Oc1nc(Nc2ccc([N+](=O)[O-])cc2)cn2ccnc12
[reply] < 1

[ask] Give recorded selectivity ratio. Cc1cc(C)c(Oc2nc(Nc3ccc(Cl)cc3)cn3ccnc23)c(C)c1
[reply] < 1

[ask] Give recorded selectivity ratio. CC(C)Nc1cccnc1N1CCN(C(=O)c2cc3cc(NS(C)(=O)=O)ccc3[nH]2)CC1 [DELAVIRDINE MESYLATE]
[reply] 1

[ask] Give recorded selectivity ratio. Cc1cc(C)c(Oc2nc(Nc3ccc(CC#N)cc3)cn3ccnc23)c(C)c1
[reply] < 1

[ask] Give recorded selectivity ratio. O=[N+]([O-])c1ccc(Nc2cn3ccnc3c(Oc3c(F)cc(F)cc3F)n2)cc1
[reply] < 1

[ask] Give recorded selectivity ratio. Cc1cc(Br)cc(C)c1Oc1nc(Nc2ccc(C#N)cc2)cn2ccnc12
[reply] < 1

[ask] Give recorded selectivity ratio. Cc1cc(Cl)cc(C)c1Oc1nc(Nc2ccc([N+](=O)[O-])cc2)cn2ccnc12
[reply] < 1

[ask] Give recorded selectivity ratio. N#Cc1ccc(Nc2cn3ccnc3c(Oc3c(F)cc(F)cc3F)n2)cc1
[reply] < 1

[ask] Give recorded selectivity ratio. Cc1cccc(C)c1Oc1nc(Nc2ccc(C#N)cc2)cn2ccnc12
[reply] < 1
